tested on: Enterobacter cloacae; assay: Inhibition of Enterobacter cloacae beta-lactamase P99 expressed in Escherichia coli AS226-51 incubated for 5 mins before nitrocefin substrate addition by spectrophotometry; details: TDE = time-dependent effect
property_label: inhibition

> print(dat)
                                entry.smiles  recorded.value
 1  O=C(Cc1cccs1)N[C@@H](Cn1cc(-c2cccc(C(=O)O)c2)nn1)B(O)O             tde
 2      CC(=O)N[C@@H](Cn1cc(C(=O)O)nn1)B(O)O             tde
 3  O=C(Cc1ccccc1)N[C@@H](Cn1cc(-c2ccccc2)nn1)B(O)O             tde
 4  O=C(Cc1cccs1)N[C@@H](Cc1cccc(C(=O)O)c1)B(O)O             tde
 5  Nc1cccc(-c2cn(C[C@H](NC(=O)Cc3ccccc3)B(O)O)nn2)c1             tde
 6    CC(=O)N[C@@H](Cn1cc(C(C)(C)O)nn1)B(O)O             tde
 7                      O=C(Cc1cccs1)NCB(O)O             tde
 8  O=C(Cc1ccccc1)N[C@@H](Cn1cc(C(=O)O)nn1)B(O)O             tde
 9  O=C(Cc1cccs1)N[C@@H](Cn1cc(C(=O)O)nn1)B(O)O             tde
10  O=C(Cc1ccccc1)N[C@@H](Cn1cc(-c2cccc(C(=O)O)c2)nn1)B(O)O             tde
11  Nc1cccc(-c2cn(C[C@H](NC(=O)Cc3cccs3)B(O)O)nn2)c1             tde
12  CC(C)(O)c1cn(C[C@H](NC(=O)Cc2cccs2)B(O)O)nn1             tde
13  CC(C)(O)c1cn(C[C@H](NC(=O)Cc2ccccc2)B(O)O)nn1             tde
14   CC(=O)N[C@@H](Cn1cc(-c2ccccc2)nn1)B(O)O             tde
15  O=C(Cc1cccs1)N[C@@H](Cn1cc(-c2ccccc2)nn1)B(O)O             tde
16       O=C(Cc1cccs1)N[C@@H](Cn1ccnn1)B(O)O             tde

* * *

test: Inhibition of beta-lactamase P99 (unknown origin) expressed in Escherichia coli DH10B assessed as cefotaxime MIC at 4 ug/ml by agar dilution method
A collection of compounds and their measured MIC
property_label: MIC

> print(dat)
                               entry.smiles  recorded.value
1                      O=C(Cc1cccs1)NCB(O)O         2 µg/mL
2  O=C(Cc1cccs1)N[C@@H](Cn1cc(-c2cccc(C(=O)O)c2)nn1)B(O)O         4 µg/mL
3  O=C(Cc1cccs1)N[C@@H](Cn1cc(C(=O)O)nn1)B(O)O         2 µg/mL
4  O=C(Cc1cccs1)N[C@@H](Cc1cccc(C(=O)O)c1)B(O)O         4 µg/mL

* * *

system: Pseudomonas aeruginosa; assay: Inhibition of Pseudomonas aeruginosa beta-lactamase PDC3 expressed in Escherichia coli BL21 (DE3) RP CodonPlus incubated for 5 mins before nitrocefin substrate addition by spectrophotometry; settings: TDE = time-dependent effect
property_label: time-dependent effect

> print(dat)
                                entry.smiles  recorded.value
 1  O=C(Cc1cccs1)N[C@@H](Cc1cccc(C(=O)O)c1)B(O)O             tde
 2  CC(C)(O)c1cn(C[C@H](NC(=O)Cc2ccccc2)B(O)O)nn1             tde
 3  CC(C)(O)c1cn(C[C@H](NC(=O)Cc2cccs2)B(O)O)nn1             tde
 4  O=C(Cc1cccs1)N[C@@H](Cn1cc(-c2cccc(C(=O)O)c2)nn1)B(O)O             tde
 5                      O=C(Cc1cccs1)NCB(O)O             tde
 6  Nc1cccc(-c2cn(C[C@H](NC(=O)Cc3cccs3)B(O)O)nn2)c1             tde
 7  O=C(Cc1ccccc1)N[C@@H](Cn1cc(-c2cccc(C(=O)O)c2)nn1)B(O)O             tde
 8  O=C(Cc1ccccc1)N[C@@H](Cn1cc(-c2ccccc2)nn1)B(O)O             tde
 9  Nc1cccc(-c2cn(C[C@H](NC(=O)Cc3ccccc3)B(O)O)nn2)c1             tde
10  O=C(Cc1cccs1)N[C@@H](Cn1cc(-c2ccccc2)nn1)B(O)O             tde

* * *

assay: Inhibition of beta-lactamase PDC-3 (unknown origin) expressed in Escherichia coli DH10B assessed as cefotaxime MIC at 4 ug/ml by agar dilution method
property_label: MIC (µg/mL)

> print(dat)
                               entry.smiles  property.label  recorded.value
1  O=C(Cc1cccs1)N[C@@H](Cn1cc(-c2cccc(C(=O)O)c2)nn1)B(O)O             MIC               1
2  O=C(Cc1cccs1)N[C@@H](Cn1cc(C(=O)O)nn1)B(O)O             MIC             0.5
3                      O=C(Cc1cccs1)NCB(O)O             MIC               2
4  O=C(Cc1cccs1)N[C@@H](Cc1cccc(C(=O)O)c1)B(O)O             MIC               4

Hey, just so you know, these numbers are from ChEMBL document CHEMBL3585244.
